- method-summary: folding stability dG unfold from trypsin proteolysis; higher = more stable
measured-parameter: folding stability dG unfold (kcal/mol)
Number in kcal/mol, nothing else.

Give the reported value of folding stability dG unfold for this record: SAGGSATQVVLKITIKINKGEKEETREIVLPATDPEEAIAKVKKELKEKGIDAEIEELEILPVDLLSAGGSA [r15_165_JUSTAS]
1.31

Give the reported value of folding stability dG unfold for this record: SAGGGMTLTQVSSHQSPNGGVPTTLVTETLFYPETGTAVVLTKVRLPETGEVTTVASTVLPIPPPLLSAGGS [r8_384_JUSTAS]
-0.0612

Give the reported value of folding stability dG unfold for this record: SAGGGSMVNISKEELAKKIAKELGKDFPTENVKVKKEIYPEPVSIYTITIKVPGTNITLNVPITLPESAGGS [r16_42_JUSTAS]
-0.043

Give the reported value of folding stability dG unfold for this record: SAGGNFVVPFKDPEQVKEIREAAEKGEEIEITPPDGKKFTFKVESVEVDPESGRVVIKLPSGKEFPLSAGGS [r16_254_TrMRF]
0.275

Give the reported value of folding stability dG unfold for this record: SPSRPTLVTTYTFDPSGVPTATTKEITPEEVEELEKKGWKKLSEDPEKGLITLEKKLPTSPQKIEVTILPSA [r9_5_JUSTAS]
-0.402

Give the reported value of folding stability dG unfold for this record: SAGGKILIYPGSIEEAIEALKANPNTTVLVISPDGTLIEITVEELGPGPFKIDIKVIPLLPPLKPDEASAGG [r13_56_TrMRF]
1.6

Give the reported value of folding stability dG unfold for this record: SAGGSAGGSMPKTYSFKVKSKEEIVKLIEELKKLGAKKVEVKELPDGYELYVEVGDSVIKVYSSAGGSAGGS [r12_846_TrMRF]
1.31

Give the reported value of folding stability dG unfold for this record: SAGGSAGGSMNVPPGESVTVTVPPGTGLEWLRAQLPSSRTWDFATFVSENPSPPVTTYEITVGSAGGSAGGS [r12_469_JUSTAS]
1.16

Give the reported value of folding stability dG unfold for this record: SAGPGNWFIMIFINIEIKLETVPDPDGKPWLKITISIKFFVMIVRLPPDGKARMEMFPITIKFTFTIPLSAG [r5_428_TrROS]
4.17

Give the reported value of folding stability dG unfold for this record: SAGGKPVRILVIAGKGIRPLEIPVDEDKTVEAEFKFGDHTIRIRVSPKEKKIEVEAPSNFKIIILEPSAGGS [r16_761_TrMRF]
2.96

Give the reported value of folding stability dG unfold for this record: SAGGMTYVLPNGERLLVRVSVRTEPRLDPDRPELVLEPRVEIELFAVSPDLTLRPVPEELARELFEKESAGG [r13_809_TrMRF]
0.891

Give the reported value of folding stability dG unfold for this record: SAGGSMLEVYYRIPPDIPLEEALERVAREVEEVLRARYGGPVTVEAEEVERPPDDETLLRVLVRFESAGGSA [r2_214_TrMRF]
1.7

Give the reported value of folding stability dG unfold for this record: SAGGSAGGSAGGWNIQVNPDNLKPGKEYRISITHPNGPPIPFEVRLKADGDGDWEFKIESAGGSAGGSAGGS [r10_390_TrROS]
-0.0699

Give the reported value of folding stability dG unfold for this record: SAGGSAGGSLKPFPIEDITVQPRRNPDGNRYYQVSIRIKGPGRPINIPFPMDNPKKFLEDIIKSAGGSAGGS [r20_238_TrROS]
0.519

Data provenance: the supplement of paper PMC12764529
